- assay-overview: chemical genetic growth profiling, strain panel (AID 1159580);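 note: tested at 20 µM; growth read once vehicle control cultures reached saturation at 30 °C; 1 = growth at the plate median or of vehicle wells; lower values mean less growth of the strain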
- protocol-conditions: S. cerevisiae deletion strains, growth OD, locus YJR075W, strain HOC1, hits give low values
Hit rate of the full screen: of about 5,500 compounds, about 2,000 (36%) were called active. Roughly 18% stayed inconclusive and do not appear here. Some of the results follow.
test-readout: normalized growth
Respond numerically, and do not add a unit to the figure.

Examples from the recorded data:
{"mol": "CC(C)(C)CC(C)(C)c1ccc(O)c(Cc2ccc(Cl)cc2Cl)c1", "measured": 1.01}
{"mol": "Oc1ccc(Cl)cc1Cc1cc(Cl)ccc1O", "measured": 0.0746}
{"mol": "Nc1cc2c(cc1Cl)C(=O)NC2=O", "measured": 0.996}

API: the following record is the query input.
Q. Fill in: normalized growth of N#C/C(=C\c1cccn1-c1ccc(OC(F)(F)F)cc1)S(=O)(=O)c1ccccc1 is ___
A. 0.988

* * *

- assay-overview: chemical genetic growth profiling, strain panel (AID 1159580);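 note: tested at 20 µM; growth read once vehicle control cultures reached saturation at 30 °C; 1 = growth at the plate median or of vehicle wells; lower values mean less growth of the strain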
- protocol-conditions: S. cerevisiae deletion strains, growth OD, locus YKR001C, strain vps1
Out of some 5,500 compounds screened, about 2,000 (36%) were called active. Inconclusive results (about 18%) are left out. No stated cut-off is given here; in the data, active means normalized growth mostly below about 0.91 (no sharp cut-off); inconclusive means no clear call, values can overlap the other calls; inactive means mostly above about 0.92. Some of the results follow.
Hi there, use one of these labels in your reply, thanks! 1 (active), -1 (inactive)

Past entries and their recorded results:
{"compound": "Oc1ccc2c(c1)OCC1c3cc4c(cc3OC21)OCO4 (stereo unspecified)", "class": 1}
{"compound": "CC(C(=O)O)c1ccc(C(=O)c2cccs2)cc1 (stereo unspecified)", "class": -1}
{"compound": "OC(Cn1cncn1)(Cn1cncn1)c1ccc(F)cc1F", "class": -1}
{"compound": "COc1ccc2c(c1O)OCC1c3cc4c(cc3OC21)OCO4 (stereo unspecified)", "class": -1}
{"compound": "CC(C)[C@@H]1CC[C@@H](C)C[C@H]1O", "class": -1}
{"compound": "O=C1NC(=O)C(=O)C(=O)N1", "class": -1}

Q. GET /call?item= COc1ccc2c(c1OC)C(=O)OC2[C@H]1c2c(cc3c(c2OC)OCO3)CCN1C (stereo partly specified) returns the recorded outcome of this test.
A. -1

Q. Please let me know the test result on file for CCCNC1CCc2nc(N)sc2C1 (stereo unspecified) .
A. -1

Q. How did this test come out for COC(=O)C(C)c1ccc(C(=O)c2cccs2)cc1 (stereo unspecified) ?
A. -1

Q. Dear all, I need the recorded test outcome for COC(=O)C[C@H]1C(C)(C)C(=O)[C@@H]2CC3=C(CC[C@]4(C)C3=CC(=O)O[C@H]4c3ccoc3)[C@@]1(C)C2=O , thank you.
A. -1

Q. Please indicate how the test categorized COc1cc([C@@H]2c3cc4c(c(O)c3C[C@H]3COC(=O)[C@@H]32)OCO4)cc(OC)c1OC .
A. -1

* * *

- assay-overview: chemical genetic growth profiling, strain panel (AID 1159580);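 note: tested at 20 µM; growth read once vehicle control cultures reached saturation at 30 °C; 1 = growth at the plate median or of vehicle wells; lower values mean less growth of the strain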
- protocol-conditions: S. cerevisiae deletion strains, growth OD, locus YLR221C, strain rsa3
Structures can show the parent of a compound that is named as a salt. Among all 5,500 compounds or so, about 2,000 (36%) were called active. Roughly 18% stayed inconclusive and do not appear here. Cut-off read from the data, not from the text of the source: active = normalized growth mostly below about 0.91 (no sharp cut-off); inconclusive = no clear call, values can overlap the other calls; inactive = mostly above about 0.92. Some of the results follow. Where a SMILES comes first, the peptide text is derived from it. The star is where a group is joined. Tfa = O=C(C(F)(F)F)*
Would you mind answering with one of these outcomes? True = active, False = inactive

{"compound": "COc1c(OC)c2occc2c2oc(=O)ccc12", "class": "False"}

Q. Which result was noted for this compound in the test: CC(C)C(NC(=O)C(Cc1ccc(O)cc1)NC(=O)C(NC(=O)C(F)(F)F)C(C)C)C(=O)O (stereo not drawn) (Tfa-Val-Tyr-Val-OH; configuration not given here)
A. False

Q. // outcome(item) with item = CO/N=C(\C(=O)N[C@@H]1C(=O)N2C(C(=O)O)=C(CSc3nc(=O)c(O)nn3C)CS[C@H]12)c1csc(N)n1
A. False

Q. Identify the outcome logged in this assay for the compound shown: O=c1[nH]oc2c1CCNC2
A. False

Q. Check the results log: what was the call for COc1cc2c(cc1OC)C1Cc3ccc(OC)c(OC)c3CN1CC2 (stereo not given) ?
A. False

Q. Which outcome did this test record for the compound CC(C)(Oc1ccc(C2CC2(Cl)Cl)cc1)C(=O)O (stereo not given) ?
A. False

Q. Which outcome was assigned to C[C@@H]1C(=O)OC2[C@H](O)C34[C@@H]5OC(=O)[C@@]3(O[C@@H]3OC(=O)[C@H](O)[C@@]34[C@H](C(C)(C)C)[C@H]5O)[C@]21O (stereo not given in full) in this test?
A. False

Q. Could you kindly confirm the outcome this assay logged for Cc1ccc(Cl)c(Nc2ccccc2C(=O)O)c1Cl ?
A. True

Q. Outcome logged for Nc1nc2ncc(=O)[nH]c2c(=O)[nH]1 in this assay:
A. False

Q. Which outcome did this test record for the compound C=C1C(=O)OC2CC1C(OC(C)=O)C/C(C)=C/CC/C(C)=C/CC[C@]2(C)O (stereo not given in full) ?
A. False

Q. How was CCCCCCCCCCCCCCCC(=O)OC1C(SC)OC(C(NC(=O)C2CC(CCC)CN2C)C(C)Cl)C(O)C1O (stereo not given) classified in this test?
A. False

Q. Answer briefly: the call reported for CC(C)COCC(CN(Cc1ccccc1)c1ccccc1)N1CCCC1 (stereo not given) in this assay.
A. False

Q. // return assay outcome for Cn1c(=O)c2[nH]cnc2n(C)c1=O
A. False

Q. Tell me the recorded outcome of this test for CC(C)C(C)/C=C/C(C)C1CCC2C3=CC=C4CC(O)CCC4(C)C3CCC21C (stereo not given) .
A. False
